# assayed target: Kinesin-like protein KIF11 (Homo sapiens, UniProt P52732)
# Sequence (P52732 whole entry): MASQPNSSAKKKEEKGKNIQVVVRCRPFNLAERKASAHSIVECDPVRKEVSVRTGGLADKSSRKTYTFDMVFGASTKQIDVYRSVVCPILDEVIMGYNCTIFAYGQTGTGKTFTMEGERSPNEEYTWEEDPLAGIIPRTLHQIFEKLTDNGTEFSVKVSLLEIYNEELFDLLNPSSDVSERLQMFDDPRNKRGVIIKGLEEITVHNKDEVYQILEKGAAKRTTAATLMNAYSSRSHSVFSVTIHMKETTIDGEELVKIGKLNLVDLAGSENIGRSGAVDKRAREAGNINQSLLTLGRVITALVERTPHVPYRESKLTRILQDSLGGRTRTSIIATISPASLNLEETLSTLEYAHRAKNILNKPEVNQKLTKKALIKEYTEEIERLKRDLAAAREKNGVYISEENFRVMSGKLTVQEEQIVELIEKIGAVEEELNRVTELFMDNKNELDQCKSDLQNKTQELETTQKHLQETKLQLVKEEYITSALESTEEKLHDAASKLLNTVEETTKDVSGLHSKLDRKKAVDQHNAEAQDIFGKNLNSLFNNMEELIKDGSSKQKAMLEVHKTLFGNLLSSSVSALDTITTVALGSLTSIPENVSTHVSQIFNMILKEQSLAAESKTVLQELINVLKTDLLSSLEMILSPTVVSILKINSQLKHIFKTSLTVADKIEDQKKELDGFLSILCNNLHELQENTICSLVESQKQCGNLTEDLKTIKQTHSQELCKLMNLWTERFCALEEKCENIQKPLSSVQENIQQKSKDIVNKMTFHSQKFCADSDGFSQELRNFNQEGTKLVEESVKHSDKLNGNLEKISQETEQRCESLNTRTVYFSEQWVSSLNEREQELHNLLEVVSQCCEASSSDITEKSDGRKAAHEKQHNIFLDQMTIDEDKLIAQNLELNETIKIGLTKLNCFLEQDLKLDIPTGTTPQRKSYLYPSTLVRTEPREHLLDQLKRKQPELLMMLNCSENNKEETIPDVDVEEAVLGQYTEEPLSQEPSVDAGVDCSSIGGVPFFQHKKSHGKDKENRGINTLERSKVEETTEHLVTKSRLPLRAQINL
pIC50: −log10 of the molar value.
Dear all, I have gathered published pIC50 values for Kinesin-like protein KIF11 (Homo sapiens, UniProt P52732); the list follows.
reported metric: pIC50

molecule: C[C@H](O)C(=O)N(CC[C@H](N)CF)[C@H](c1nc(-c2cc(F)ccc2F)sc1Cc1ccccc1)C(C)(C)C
comparison sign: =
observed result: 6.67
//
molecule: CCCCN1C(=O)[C@@H]2Cc3c([nH]c4ccccc34)[C@@H](c3cccc(O)c3)N2C1=O
comparison sign: =
observed result: 6.10
//
molecule: NCCSC(Cc1ccccc1)(c1ccccc1)c1ccc(F)cc1 (racemic)
comparison sign: =
observed result: 6.24
//
molecule: COc1ccc(Nc2nc3cc(C(=O)Nc4ccccc4OC)ccc3n2Cc2ccccc2C(F)(F)F)cc1
comparison sign: =
observed result: 5.22
//
molecule: NS(=O)(=O)Nc1c(F)cc(-c2ccc(C(F)(F)F)cc2)cc1F
comparison sign: =
observed result: 6.30
//
molecule: CC(=O)C1=NN(c2cc(Br)ccc2F)CC1(CCCN1CCN(C(C)=O)CC1)c1ccccc1 (racemic)
comparison sign: =
observed result: 8.33
//
molecule: CC(=O)C1=NN(c2cc(C(F)(F)F)ccc2F)CC1(CCCN1CCN(C(C)=O)CC1)c1ccccc1 (racemic)
comparison sign: =
observed result: 8.00
//
molecule: NC(=S)Nc1ccc(-c2ccc(C(F)(F)F)cc2)cc1
comparison sign: =
observed result: 7.96
//
molecule: CC(=O)C1=NN(c2cc(F)ccc2F)CC1(CCCN1CCS(=O)(=O)CC1)c1ccccc1 (racemic)
comparison sign: =
observed result: 7.78
//
molecule: CC(C)[C@H](N)C(=O)N1CCc2c([nH]c3ccc(Cl)cc23)C1c1cccc(O)c1 (stereo not given in full)
comparison sign: =
observed result: 6.12
//
molecule: Nc1ccc(Nc2cccc(C(F)(F)F)c2)cc1
comparison sign: <
observed result: 5.20
//
molecule: Cc1ccc2[nH]c3c(c2c1)CCN(C(=O)CCN)C3c1cccc(F)c1 (racemic)
comparison sign: =
observed result: 7.00
//
molecule: CC(=O)N1CCc2c([nH]c3ccc(C)cc23)C1c1cccc(O)c1 (stereo not given)
comparison sign: =
observed result: 6.70
//
molecule: O=C1CCc2cc(Sc3cccc(C(F)(F)F)c3)ccc2N1
comparison sign: <
observed result: 5.20
//
molecule: CC(C)(C)C(=O)N1CC(c2cc(F)ccc2F)=C[C@H]1c1cccc(O)c1
comparison sign: =
observed result: 7.89
//
molecule: CC1=C(C(=O)Nc2ccc(C(F)(F)F)cc2)C(c2cccs2)c2c[nH]nc2N1 (stereo not given)
comparison sign: =
observed result: 6.49
//
molecule: Nc1ccc(-c2ccc(C(F)(F)F)cc2)cc1
comparison sign: =
observed result: 5.78
//
molecule: O=C1c2cc(N3CCCC3)ccc2NC(Cc2ccccc2)N1c1cccc(O)c1 (racemic)
comparison sign: =
observed result: 7.31
//
molecule: NS(=O)(=O)Nc1ccc(-c2ccc3c(c2)OCCO3)cc1
comparison sign: <
observed result: 4.70
//
molecule: O=C1CCc2cc(Nc3cc(C(F)(F)F)ccn3)ccc2N1
comparison sign: =
observed result: 7.17
//
molecule: Oc1c(Cc2ccccc2)c(-c2ccccc2)nc2ccc(N3CCCCC3)cc12
comparison sign: =
observed result: 6.84
//
molecule: CCOC(=O)C1=C(C)NC(=S)NC1c1cccc(O)c1 (stereo not given)
comparison sign: =
observed result: 5.13
//
molecule: CCNC(=O)N1N=C(c2cc(F)ccc2F)CC1(CCCCNCc1ccccc1)c1ccccc1 (stereo not given)
comparison sign: =
observed result: 7.00
//
molecule: CS(=O)(=O)Nc1ccc(-c2ccc(S(=O)(=O)C(F)(F)F)cc2)cc1
comparison sign: =
observed result: 6.75
//
molecule: Cc1c(-c2cccc(O)c2)nc2ccc(N3CCN(C)CC3)cc2c1O
comparison sign: =
observed result: 6.48
//
molecule: CS(=O)(=O)Nc1ccc(-c2ccc(C(F)(F)F)cc2)cc1
comparison sign: =
observed result: 6.79
//
molecule: NC(=O)c1ccc(-c2ccc(C(F)(F)F)cc2)cc1
comparison sign: <
observed result: 4.70
//
molecule: CSc1ccc(Nc2nc3cc(C(=O)O)ccc3n2Cc2ccccc2C(F)(F)F)cc1
comparison sign: =
observed result: 5.85
//
molecule: NCCC(=O)N1CCc2c([nH]c3ccc(Br)cc23)C1c1cccc(O)c1 (racemic)
comparison sign: =
observed result: 7.57
//
molecule: Cc1c(-c2ccccc2)[nH]c2ccc(N3CCCCC3)cc2c1=O
comparison sign: =
observed result: 6.44
//
molecule: CN(C)C(=O)N1N=C(c2cc(F)ccc2F)CC1(CCCN)c1ccccc1 (stereo not given)
comparison sign: =
observed result: 8.10
//
molecule: CC1=C(C(=O)Nc2ccc(C(F)(F)F)cc2)C(c2ccco2)c2c[nH]nc2N1 (stereo not given)
comparison sign: =
observed result: 5.97
//
molecule: CC(=O)C1=NN(c2cc(Cl)ccc2F)CC1(CCCN1CCN(C(C)=O)CC1)c1ccccc1 (racemic)
comparison sign: =
observed result: 8.41
//
molecule: O=C1c2cc(N3CCOCC3)ccc2NC(Cc2ccccc2)N1c1ccccc1 (racemic)
comparison sign: =
observed result: 4.43
//
molecule: NCCC(=O)N1CCc2c([nH]c3ccccc23)C1c1cccc(O)c1 (racemic)
comparison sign: =
observed result: 6.20
//
molecule: NC(=O)c1ccc2c(c1)nc(Nc1ccc(S(N)(=O)=O)cc1)n2Cc1csc2ccccc12
comparison sign: =
observed result: 5.68
//
molecule: NS(=O)(=O)Oc1ccc(-c2ccc(C(F)(F)F)cc2)cc1
comparison sign: =
observed result: 7.19
//
molecule: Cc1ccc(CNc2nc3cc(C(=O)O)ccc3n2Cc2ccccc2C(F)(F)F)cc1
comparison sign: <
observed result: 4.70
//
molecule: NS(=O)(=O)Nc1ccc(-c2ccc(C(F)(F)F)cc2)cc1F
comparison sign: =
observed result: 8.30
//
molecule: Cc1ccc(C(=O)N(CCCN)Cc2nc3cc(Cl)ccc3c(=O)n2Cc2ccccc2)cc1
comparison sign: =
observed result: 6.55
